The measurements presented in this section are drawn from the supplement of paper PMC10567573.

B1: BTBD10 (parent)
chain: DRKLHSRPRKLYKHSSTSSRIAKG

Variants of: B1
Assay: protein stability index of a GFP-peptide fusion (GPS, HEK-293T) (PSI 1-6); higher = more stable;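 further: lentivirally expressed fusions sorted by FACS into six bins by GFP to DsRed ratio, PSI derived from sequencing read proportions per bin multiplied by bin number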
Conditions: c terminus: a fixed tail appended
Parameter: protein stability index
I only need the number, thanks.

Consider the reported protein stability index for these variants:
DRKLHSRPRKLYKHSSTMSRIAKG [S18M] : 3.63
DRKLHSRPRKLYKHSSTTSRIAKG [S18T] : 3.65
DRKLHSRPVKLYKHSSTSSRIAKG [R9V] : 3.82

Problem: Please look up its protein stability index: DRKLHSRPRKLYKHSSTSSAIAKG [R20A]
Solution: 3.9

Problem: Please look up its protein stability index: DRKLHSRPRKLCKHSSTSSRIAKG [Y12C]
Solution: 3.84

Problem: Please look up its protein stability index: DRKTHSRPRKLYKHSSTSSRIAKG [L4T]
Solution: 4.3
